measurement_notes: differential killing of epithelial or mesenchymal cells, primary screen, imaging, PC-3E GFP, TEM4-18 mCherry, co-culture (AID 1345086);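 further: cells exposed to compound for 72 h before imaging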
stated_conditions: imaging cell counts, measured here: epithelial PC-3E GFP cell survival, at 1 µM
# normalised cell number annotations
# print the numeric value only

- COc1ccc2cc(CCC(C)=O)ccc2c1: 1.12
- Nc1ccc(S(=O)(=O)c2ccc(N)cc2)cc1: 1.14
- OC(Cn1cncn1)(Cn1cncn1)c1ccc(F)cc1F: 1.22

Sample CC(COc1ccccc1)N(CCCl)Cc1ccccc1 (stereo unspecified) — what was its normalised cell number? 1.17

Sample CN(C)CCCN1c2ccccc2CCc2ccc(Cl)cc21 — what was its normalised cell number? 0.96
